- study-target: human type 1 glycine transporter (GlyT1) (Homo sapiens, UniProt P48067)
- Construct: T98G cells (glioma cells) expressing human type 1 glycine transporter (GlyT1) were used
- measurement-protocol: Glycine uptake inhibition experiment ([3H]glycine uptake)
- Type: cell-based
- measurement-context: GlyT1
pIC50: −log10 of the molar value.
reported-metric: pIC50

INSERT INTO measurements (molecule, quantitative_result) VALUES
  ('O=C(NC(c1cccc(-n2cccn2)c1)C1(O)CCCC1)c1nccc(C(F)(F)F)c1Cl (single isomer, unassigned) [Compound 82]', 7.05),
  ('CCn1cc(-c2cccc(C(NC(=O)c3cccc(C(F)(F)F)c3Cl)C3(O)CCC(F)(F)CC3)c2)cn1 (single isomer, unassigned) [Compound 121]', 5.13),
  ('O=C(NC(c1cccc(F)n1)C1(O)CCC(F)(F)CC1)c1nccc(C(F)(F)F)c1Cl (single isomer, unassigned)', 6.82),
  ('O=C(NC(c1cccc(F)c1Cl)[C@]1(O)CC[C@@H](F)CC1)c1nccc2ccccc12 (single isomer, unassigned)', 6.92),
  ('O=C(NC(c1cccc(F)c1)C1(O)CCC1)c1nccc(C(F)(F)F)c1Cl (single isomer, unassigned) [Compound 66]', 6.16),
  ('O=C(NC(c1cc(Cl)ccn1)[C@]1(O)CC[C@@H](F)CC1)c1nccc(C(F)(F)F)c1Cl (single isomer, unassigned)', 6.85);

* * *

- study-target: human type 1 glycine transporter (GlyT1) (Homo sapiens)
- Construct: T98G cells (glioma cells) expressing human type 1 glycine transporter (GlyT1) were used
- measurement-protocol: Glycine uptake inhibition experiment ([3H]glycine uptake)
- Format: cell-based
- measurement-context: GlyT1
Classes by IC50: class 1 = under 300 nM, class 2 = from 300 nM up to 1000 nM, class 3 = 1000 nM and over

INSERT INTO assay_data (compound, study_target, category) VALUES
  ('O=C(NC(c1cccc(F)c1Cl)C1(O)CCC(F)(F)CC1)c1ccnc(C(F)(F)F)c1Cl (single isomer, unassigned) [Compound 178]', 'human type 1 glycine transporter (GlyT1) (Homo sapiens)', 'class 1'),
  ('O=C(NC(c1cccc(F)c1Cl)[C@]1(O)CC[C@@H](F)CC1)c1ccc(C(F)(F)F)nc1Cl (single isomer, unassigned) [Compound 304]', 'human type 1 glycine transporter (GlyT1) (Homo sapiens)', 'class 1'),
  ('O=C(NC(c1cccc(Cl)c1F)C1(O)CCC(F)(F)CC1)c1nc(C(F)(F)F)ccc1Cl (single isomer, unassigned) [Compound 226]', 'human type 1 glycine transporter (GlyT1) (Homo sapiens)', 'class 3'),
  ('COC(=O)c1cccc(C(NC(=O)c2nccc(C(F)(F)F)c2Cl)C2(O)CCCC2)c1 (centres unmarked) [Compound 98]', 'human type 1 glycine transporter (GlyT1) (Homo sapiens)', 'class 2'),
  ('O=C(NC(c1cccc(-n2cccn2)c1)C1(O)CCCC1)c1nccc(C(F)(F)F)c1Cl (centres unmarked) [Compound 80]', 'human type 1 glycine transporter (GlyT1) (Homo sapiens)', 'class 1'),
  ('O=C(NC(c1cccc(F)c1)C1(O)CCCCC1)c1nccc(C(F)(F)F)c1Cl (single isomer, unassigned) [Compound 67]', 'human type 1 glycine transporter (GlyT1) (Homo sapiens)', 'class 1'),
  ('CCn1cc(-c2cccc(C(NC(=O)c3ccnc(C(F)(F)F)c3)C3(O)CCC(F)(F)CC3)c2)cn1 (centres unmarked) [Compound 172]', 'human type 1 glycine transporter (GlyT1) (Homo sapiens)', 'class 3'),
  ('CCn1cc(-c2cccc(C(NC(=O)c3cccc(Cl)c3C(F)(F)F)C3(O)CCC(F)(F)CC3)c2)cn1 (centres unmarked) [Compound 208]', 'human type 1 glycine transporter (GlyT1) (Homo sapiens)', 'class 3'),
  ('O=C(NC(c1cccc(F)c1Cl)[C@]1(O)CC[C@@H](F)CC1)c1cc(Cl)cc(Cl)c1 (single isomer, unassigned) [Compound 253]', 'human type 1 glycine transporter (GlyT1) (Homo sapiens)', 'class 3'),
  ('O=C(NC(c1cccc(F)c1)C1(O)CCC1)c1nccc(C(F)(F)F)c1Cl (centres unmarked) [Compound 62]', 'human type 1 glycine transporter (GlyT1) (Homo sapiens)', 'class 3'),
  ('O=C(NC(c1cc(Cl)cc(Cl)c1)C1(O)CCCC1)c1nccc(C(F)(F)F)c1Cl (single isomer, unassigned) [Compound 115]', 'human type 1 glycine transporter (GlyT1) (Homo sapiens)', 'class 1'),
  ('CCn1cc(-c2cccc(C(NC(=O)c3cccc4ccccc34)C3(O)CCC(F)(F)CC3)c2)cn1 (centres unmarked) [Compound 138]', 'human type 1 glycine transporter (GlyT1) (Homo sapiens)', 'class 2');
